# target.system: p-EGFR Del19/C797S (H1975-clone #23 cells) (Homo sapiens)
# assay.remarks: Cell p-EGFR inhibition assay, HTRF, H1975-clone#23 (DEL19/C797S) cells
# Type: cell-based
# test.context: 16 h treatment, maximum percentage of pEGFR inhibition
measured.property: Imax (%)

COC[C@@H]1CN(c2cc3c(cc2OC)N/C2=N\C(=O)c4cc(C)nc(c4)-c4c(C)nn(C)c4OC[C@H]4CC[C@H](C4)CN23)CCN1C1CCN(c2cc(F)c([C@H]3CCC(=O)NC3=O)c(F)c2)CC1 : 99.54
COC[C@@H]1CN(c2ccc3c(c2)N2CC4CC[C@H](COc5c(c(C(F)(F)F)nn5C)-c5cc(cc(C)n5)C(=O)/N=C/2N3)C4)CCN1C1CCN(c2cc(F)c([C@H]3CCC(=O)NC3=O)c(F)c2)CC1 : 99.2
